- assay-remarks: folding stability dG unfold from trypsin proteolysis; higher = more stable
Consider the following sequences and their measured folding stability dG unfold readings.
endpoint-name: folding stability dG unfold

[
  {
    "input-sequence": "SAMSVTISFDPKGPGGTLTITADPNSPQIEKFINELKKKLNLDIKSYTKTILPNGTVKVTLTYSKINLPSAG [r14_655_JUSTAS]",
    "endpoint-result": "4.05 kcal/mol"
  },
  {
    "input-sequence": "SAGGSAGGSMMKVRVYARNKDGEEVPVEEIEIPPEVETPEEALKLAEELAKKEGVEEVRVEIESAGGSAGGS [r12_569_TrROS_Hall]",
    "endpoint-result": "-0.13 kcal/mol"
  },
  {
    "input-sequence": "SAGGSMPLDVSSELLEESTDPSDPNRRTTLERRFSPDGTVTLVTRTFDPATGTTEVQETTLPPGLPSAGGSA [r2_73_JUSTAS]",
    "endpoint-result": "0.529 kcal/mol"
  }
]
